- test.target: T1, MPDZ_10, O75970
- T1 sequence (O75970 1624-1722, limits assumed, looked up): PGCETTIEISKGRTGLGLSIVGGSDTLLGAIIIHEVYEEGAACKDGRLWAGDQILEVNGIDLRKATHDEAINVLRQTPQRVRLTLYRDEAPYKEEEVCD
- measurement.notes: holdup assay
- Set-up: key: below the threshold = too weak to quantify, mostly under pKd 3.1 to 4
- measurement.context: plain residues with an end cap or a label only (N-terminal biotin on a linker: ttds)
property.measured: pKd

[[record]]
binder = "EMDRRPATVV [PLCB4, Q15147]"
observed_result = 3.7

[[record]]
binder = "DKDPHSETAL [TMIGD1, Q6UXZ0]"
observed_result = "below the threshold"

[[record]]
binder = "QRQARSETLV [HPV59-E6, Q81964]"
observed_result = "below the threshold"

[[record]]
binder = "FHPLGADSQV [SLC2A1, P11166]"
observed_result = "below the threshold"

[[record]]
binder = "RLQRRRETQV [HPV18-E6, P06463]"
observed_result = 3.56

[[record]]
binder = "SKPTRRETEV [HPV35-E6, P27228]"
observed_result = "below the threshold"

[[record]]
binder = "SGSRPSATVV [HPV73-E6, Q82005]"
observed_result = 3.74

[[record]]
binder = "PRVKPQRSKV [PPP1R13L, Q8WUF5]"
observed_result = "below the threshold"

